METHOD_SUMMARY: small-molecule microarray binders of probe aCHRDL2, primary screen, biochemical, biotinylated probe, 635/667 nm fluorescence (AID 1100)
EXPERIMENTAL_CONDITIONS: higher = more signal
composite z-score: recorded values

[
  {
    "COMPOUND": "C=CCC(OC(C)=O)[C@@H]1[C@@H](N(Cc2cc3ccccc3o2)C(=O)c2ccc(C)cc2)c2cc(OCCCO)ccc2N1C(=O)Cc1ccc(OC)cc1 (some centres not stated)",
    "composite z-score": 0.33
  },
  {
    "COMPOUND": "O=C1N(Cc2ccccc2)c2ccccc2[C@@H]2OC(c3ccc(OCCCO)cc3)=N[C@]12Cc1ccccc1",
    "composite z-score": 1
  },
  {
    "COMPOUND": "CCCCCCc1nc(C2CC2)cc2c1[Si](C(C)C)(C(C)C)O[C@H]2c1ccccc1",
    "composite z-score": -0.191
  },
  {
    "COMPOUND": "O=C(NCC(F)(F)F)[C@@H]1c2ccccc2C(=O)N(Cc2ccccc2C(F)(F)F)[C@H]1c1ccc(CO)cc1",
    "composite z-score": 0.805
  },
  {
    "COMPOUND": "COCCOC(=O)N1C(=O)[C@@]2(c3cc(C#CC4=CCCCC4)ccc31)[C@H](C(N)=O)[C@H]1C(=O)O[C@H](c3ccccc3)[C@H](c3ccccc3)N1[C@@H]2c1ccccc1OCCO",
    "composite z-score": 0.367
  },
  {
    "COMPOUND": "COC(=O)c1nc2oc1CC[C@@H](CO)NC(=O)N(C)Cc1cnnn1C[C@H](Cc1ccccc1)NC2=O",
    "composite z-score": 0.106
  },
  {
    "COMPOUND": "C=CC[C@]1(C(=O)NCCN2CCOCC2)N=C(c2ccc(OCCCO)cc2)O[C@H]1c1ccccc1CN=[N+]=[N-]",
    "composite z-score": 0.723
  }
]

----------
composite z-score: recorded values
TARGET_DESC: E3 ubiquitin-protein ligase XIAP (Homo sapiens) (UniProt P98170)
Sequence (P98170 whole entry, looked up): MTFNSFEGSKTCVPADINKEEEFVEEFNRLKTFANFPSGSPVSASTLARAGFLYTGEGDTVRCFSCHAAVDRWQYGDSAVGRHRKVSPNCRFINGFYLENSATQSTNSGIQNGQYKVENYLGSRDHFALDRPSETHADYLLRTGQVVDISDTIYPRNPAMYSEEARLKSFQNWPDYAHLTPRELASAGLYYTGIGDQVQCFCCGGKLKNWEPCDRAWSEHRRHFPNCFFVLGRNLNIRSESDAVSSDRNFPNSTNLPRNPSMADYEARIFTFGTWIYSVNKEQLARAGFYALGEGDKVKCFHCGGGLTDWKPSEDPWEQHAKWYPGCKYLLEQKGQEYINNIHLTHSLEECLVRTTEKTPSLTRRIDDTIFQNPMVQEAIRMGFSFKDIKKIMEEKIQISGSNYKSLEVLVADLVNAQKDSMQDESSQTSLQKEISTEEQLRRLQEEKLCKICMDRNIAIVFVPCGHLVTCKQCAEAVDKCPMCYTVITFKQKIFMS
METHOD_SUMMARY: XIAP binders, primary screen, biophysical, small-molecule microarray, fluorescence 635 nm (AID 1181);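 also: score merges 667 nm emission and signal to noise over triplicate slides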
EXPERIMENTAL_CONDITIONS: small-molecule microarray binding, higher = more signal
VALUE_TYPE: composite z-score

[
  {
    "COMPOUND": "CN(C)C(=O)[C@@]1(CCS(=O)(=O)c2ccccc2)N=C(c2ccc(OCCCO)cc2)O[C@H]1c1ccccc1",
    "OBSERVED": -0.0866
  },
  {
    "COMPOUND": "[N-]=[N+]=NCc1ccccc1[C@H]1OC(c2ccc(OCCCO)cc2)=N[C@@]1(CCS(=O)(=O)c1ccccc1)C(=O)NCC(O)CO (stereo not given in full)",
    "OBSERVED": -0.0553
  },
  {
    "COMPOUND": "OCC1CC(c2ccccc2)=NO1 (stereo not given)",
    "OBSERVED": -0.158
  },
  {
    "COMPOUND": "C=CCC(OC(C)=O)[C@@H]1[C@@H](N(Cc2cc3ccccc3o2)C(=O)c2ccc(C)cc2)c2cc(OCCCO)ccc2N1C(=O)Cc1ccc(OC)cc1 (stereo not given in full)",
    "OBSERVED": -0.102
  },
  {
    "COMPOUND": "OCCCC1=CC(c2ccc(CN3CCCC3)cc2)N(Cc2sc3ccccc3c2Cl)CC1 (stereo not given)",
    "OBSERVED": 0.0623
  },
  {
    "COMPOUND": "COc1ccc([Si](C)(C)[C@H]2[C@H](CCn3cc([C@H](O)c4ccccc4)nn3)O[C@@]3(C(=O)N(Cc4ccc(N5C(=O)c6cccc7cccc5c67)cc4)c4ccccc43)[C@@H]2C)cc1",
    "OBSERVED": -0.031
  },
  {
    "COMPOUND": "O=C1O[C@H](c2ccccc2)[C@H](c2ccccc2)N2[C@H]1[C@@H](C(=O)Nc1nc3ccccc3s1)[C@]1(C(=O)Nc3ccc(C#CCCO)cc31)[C@H]2c1ccc(O)cc1",
    "OBSERVED": 1.01
  },
  {
    "COMPOUND": "C#CCN([C@@H](Cc1ccc(O)cc1)C(=O)OC)[C@@H](/C=C/C1CC1)[C@H](O)Cc1ccccc1",
    "OBSERVED": 0.798
  },
  {
    "COMPOUND": "CC(C)C(=C=CC[C@H](O)c1ccc(OCCO)cc1)C[C@H](O)c1ccccn1",
    "OBSERVED": 0.244
  },
  {
    "COMPOUND": "C=CCC(OC(C)=O)[C@@H]1[C@@H](N(Cc2cc3ccccc3o2)C(=O)c2ccc(-c3ccccc3)cc2)c2cc(OCCCO)ccc2N1C(=O)c1ccc2ccccc2c1 (stereo not given in full)",
    "OBSERVED": -0.135
  },
  {
    "COMPOUND": "COCCCNC(=O)[C@@]1(Cc2ccccc2CN=[N+]=[N-])N=C(c2ccc(OCCCO)cc2)O[C@H]1c1ccccc1",
    "OBSERVED": -0.052
  },
  {
    "COMPOUND": "COc1ccc(CCNC(=O)[C@@H]2c3ccccc3C(=O)N(Cc3cc(C(F)(F)F)cc(C(F)(F)F)c3)[C@H]2c2ccc(CO)cc2)cc1",
    "OBSERVED": -0.213
  },
  {
    "COMPOUND": "O=C1NC(=O)C2C1C=CC(C(O)c1cccc3ccccc13)N2Nc1ccc(Cl)cc1Cl (stereo not given)",
    "OBSERVED": 0.351
  },
  {
    "COMPOUND": "CCOC(=O)C[C@H]1[C@H](OC(=O)c2cc3ccccc3oc2=O)[C@@H](NC(=O)Cc2ccc(OC)cc2)c2cc(OCCCO)ccc2N1C(=O)c1ccc2ccccc2n1",
    "OBSERVED": -0.0414
  },
  {
    "COMPOUND": "CC(=O)c1ccc(C(O)C2C=CC3C(=O)N(c4ccccc4)C(=O)C3N2Nc2ccc(C#N)cc2)cc1 (stereo not given)",
    "OBSERVED": -0.396
  },
  {
    "COMPOUND": "CC1=C[C@@]2(CO)C(=O)[C@]3(CO3)[C@@H]1[C@H]1[C@]2(C)C=C(CO)C(=O)[C@]12CO2",
    "OBSERVED": -0.227
  },
  {
    "COMPOUND": "C=CCC(OC(C)=O)[C@@H]1[C@@H](N(Cc2ccc(-c3ccccc3)cc2)C(=O)Cc2ccc(F)cc2)c2cc(OCCCO)ccc2N1C(=O)Cc1ccc(OC)cc1 (stereo not given in full)",
    "OBSERVED": 0.0757
  },
  {
    "COMPOUND": "O=C1NC(=O)C2C1C=CC(C(O)c1c(F)cccc1Cl)N2Nc1ccc(Cl)cc1Cl (stereo not given)",
    "OBSERVED": 0.482
  },
  {
    "COMPOUND": "COCCOC(=O)N1C(=O)[C@@]2(c3cc(C#CCC(C(=O)OC)C(=O)OC)ccc31)[C@H](C(=O)N1CCc3cc(OC)c(OC)cc3C1)[C@H]1C(=O)O[C@H](c3ccccc3)[C@H](c3ccccc3)N1[C@@H]2c1ccc(OCCO)cc1",
    "OBSERVED": -0.332
  },
  {
    "COMPOUND": "CCCCC=C[C@@H](NC(=O)c1ccc(-c2ccccc2)cc1)c1ccccc1",
    "OBSERVED": -0.0272
  },
  {
    "COMPOUND": "COC(=O)[C@@]1(Cc2ccc(F)cc2)[C@H]2c3cc(C(=O)N4CCCC4)n(CCN4CNCC4=O)c3C[C@H]2CN1C(=O)c1ccccc1",
    "OBSERVED": 0.253
  },
  {
    "COMPOUND": "O=C(CS)NCCCCCCNC(=O)[C@H]1C[C@H]2C(=O)N[C@@H](Cc3ccccc3)C(=O)N2[C@H]1c1ccc(O)cc1",
    "OBSERVED": -0.166
  },
  {
    "COMPOUND": "CCCC[C@@H](O)C1=C(COc2ccccc2)C[C@H]2C(=O)N(C)C(=O)[C@H]2[C@H]1CO",
    "OBSERVED": -0.127
  },
  {
    "COMPOUND": "CN(C)CCCNC(=O)[C@@H]1c2ccccc2C(=O)N(Cc2ccccc2Cl)[C@H]1c1ccc(CO)cc1",
    "OBSERVED": -0.02
  },
  {
    "COMPOUND": "C[C@]1(C(=O)NC2CC2)c2ccccc2C(=O)N(Cc2ccccc2)[C@H]1c1ccc(CO)cc1",
    "OBSERVED": -0.234
  },
  {
    "COMPOUND": "C=CCN1Cc2ccccc2[C@H]2OC(c3ccc(OCCCO)cc3)=N[C@@]2(CC=C)C1=O",
    "OBSERVED": 0.069
  },
  {
    "COMPOUND": "O=C1OCC=C[C@H]2OC34C=CCN(Cc5ccccc5)C(=O)[C@H]3N(CCCCCCO)C(=O)[C@@H]4[C@@H]12 (stereo not given in full)",
    "OBSERVED": 0.052
  },
  {
    "COMPOUND": "NC(=O)NCC#Cc1ccc2c(c1)[C@]1(C(=O)N2)[C@H](C(=O)O)[C@H]2C(=O)O[C@H](c3ccccc3)[C@H](c3ccccc3)N2[C@@H]1c1ccc(OCCO)cc1",
    "OBSERVED": 0.361
  },
  {
    "COMPOUND": "NCCCCCNC(=O)[C@@H]1C[C@@H]2C(=O)NCC(=O)N2[C@@H]1c1cccc(OCCO)c1",
    "OBSERVED": 0.012
  },
  {
    "COMPOUND": "O[C@@H](Cc1ccccc1)[C@@H](/C=C/C1CC1)N(CC#Cc1ccccc1)Cc1cccc(Cl)c1",
    "OBSERVED": -0.0931
  }
]
